Cited source for all entries: PubChem BioAssay (NCI)

For each entry below, report its TGI value.
# Test system: MCF7 breast
# Test Name: NCI tumour cell line growth inhibition, 48 h
Answers are plain numbers, in µM.

{"columns": ["Molecule", "Tgt", "Unit Annotation", "TGI"],
 "data": [
  ["COc1cc(OC)cc(Oc2cnc3cc(N)cc(N)c3n2)c1", "MCF7 breast", "µM", 49.3],
  ["CN(C)CCNC(=O)c1cccc2ccc(-c3ccc(Br)cc3)nc12", "MCF7 breast", "µM", 13.8],
  ["O=C1/C(=C/c2ccc(O)cc2)CCCC1CN1CCCCC1 (configuration not stated)", "MCF7 breast", "µM", 6.49],
  ["COC(=O)CNC(=O)C(Cc1ccccc1)NC(=O)c1ccc(-c2ccc(Cl)cc2Cl)o1 (configuration not stated)", "MCF7 breast", "µM", 62.1],
  ["CC1(C)CC(=O)C=C(/C=C/Sc2c(Cl)c(Cl)nc(Cl)c2Cl)C1", "MCF7 breast", "µM", 8.05]
]}

// for each molecule below, give its TGI
1. CC(=O)OCC12CN(C#N)C3C4COC(CC41)C1(C(=O)N(C)c4ccccc41)C32 (configuration not stated)
2. CCc1ccccc1NC(=O)C(C#N)C1=C(Cl)C(=O)c2ccccc2C1=O (configuration not stated)
3. O=C(CCBr)N1CCN(C(=O)CCBr)CC1
4. CCN1c2ccccc2NC(=S)c2c1n[nH]c2-c1ccccc1
5. Cc1c(Cc2ccccc2)n(C(C)OCCN(OC(=O)Oc2ccccc2)C(=O)Oc2ccccc2)c(=O)[nH]c1=O (configuration not stated)
6. CC(C)=CC1C(C(=O)Oc2ccccc2C(C)C)C1(C)C (configuration not stated)
7. COc1cc(-c2cc3ncccc3c3nc(OCCN(C)C)c4cccnc4c23)cc(OC)c1OC
8. C/C(=N\NC(=S)N1CCN(c2ccccn2)CC1)c1ccccn1

Given back:
41.4
57
215
74.9
63.8
38
14.8
11.4

// for each molecule below, give its TGI
1. CCCCCCCCCCCCCC[n+]1ccccc1
2. O=C(CN1CCN(Cc2ccccc2Cl)CC1)NC1CC(=O)c2c(Br)sc(Br)c21 (configuration not stated)
3. Cc1cc2cc3cc(C)c(N)cc3nc2cc1N

Given back:
2.66
33.8
2.71
